- Tested on: CAKI-1
- PROCEDURE_SUMMARY: NCI tumour cell line growth inhibition, 48 h
Activity calls are given as the source filed them. Rule as the data show it: active = GI50 up to about 1.1 µM and inactive = higher.
ENDPOINT_NAME: GI50

Worked cases, answers included:
O=C(NCc1ccccc1)c1cc2ccccc2o/c1=N\c1ccccc1F    14 µM (inactive)
c1ccc(C2OCC(OC3CCCCO3)CO2)cc1 (stereo unspecified)    > 100 µM (inactive)
Cc1c(C#N)c2nnn(-c3ccccc3)c(=O)n2c1-c1ccccc1    2.42 µM (inactive)
O=[N+]([O-])C(/C(Cl)=C(/Cl)N1CCOCC1)=C1\Nc2ccccc2O1    > 100 µM (inactive)
O=C(Nc1cc(Cl)c(I)c(Cl)c1)C(F)(F)F    19.9 µM (inactive)
COC(=O)[C@]12CC=C3O[C@@H]4OC5(CCCCC5)O[C@@H]4[C@H]3C1C(=O)C=CC2=O (stereo partly specified)    15.9 µM (inactive)
O=C(O)CCCNc1ncc2c(n1)-c1ccccc1OC2    > 100 µM (inactive)
NC(=S)Nc1nnc(-c2ccc(-c3nnc(NC(N)=S)o3)cc2)o1    > 100 µM (inactive)

// batch mode: one GI50 value per listed entry
1. CC(=O)Nc1ccc2c3c(cc(O)c2c1)N(C(=O)CCCCCC(=O)Nc1ccc2c4c(cc(O)c2c1)N(C(=O)OC(C)(C)C)CC4CCl)CC3CCl (stereo unspecified)
2. CCOC(=O)N1CC2(C)C=CC1C(C(=O)OC)C2 (stereo unspecified)
3. CC1(C)C2CCC3CC(CCC#N)CCC3C21C#N (stereo unspecified)

Result:
1. > 100 µM (inactive)
2. > 100 µM (inactive)
3. > 100 µM (inactive)

---

- Tested on: RXF 393
- PROCEDURE_SUMMARY: NCI tumour cell line growth inhibition, 48 h
The source made the active and inactive calls. No stated cut-off is given here; in the data, active = GI50 up to about 1.1 µM and inactive = higher.
Lab note: assign the record to one of active, inactive

Use the examples below as a reference point.
COc1cccc(C2c3cc4c(cc3OC(NNC(N)=O)C2C)OCO4)c1OC (stereo not given)    inactive
COc1ccc(C(=O)/C=C/c2ccc(Oc3cc(C(=O)/C=C/c4ccc(O)cc4)c(O)cc3OC)cc2)c(O)c1    inactive
CN(C)c1c(Cl)c(=O)oc2c1ccc1nc(-c3ccccc3)sc12    inactive
C[C@@H]1C(O)CC[C@H](C)C12CC=CC2=O (stereo not given in full)    inactive

Ask: # outcome recorded in this test, key = `COc1ccc2nc(-c3ccc(O)cc3)cc(O)c2c1`
Result: active

Ask: # outcome recorded in this test, key = `CCOC(=O)Cn1c(C(F)(F)F)nc2nc(Cl)c(Cl)nc21`
Result: inactive

Ask: # outcome recorded in this test, key = `COc1ccc2c(c1)/C(=C(\C(Cl)=C(Cl)Cl)[N+](=O)[O-])N2`
Result: inactive

Ask: # outcome recorded in this test, key = OC(CCNC12CC3CC(CC(C3)C1)C2)c1ccccc1 (stereo not given)
Result: inactive

Ask: # outcome recorded in this test, key = `CCc1nc(N)nc(N)c1-c1ccc2nnn(O)c2c1`
Result: inactive

---

- System: CCRF-CEM
- PROCEDURE_SUMMARY: NCI tumour cell line growth inhibition, 48 h
Activity calls are given as the source filed them. No stated cut-off is given here; in the data, active = GI50 up to about 1.1 µM and inactive = higher.
Lab note: assign the record to one of yes for active, no for inactive

Use the examples below as a reference point.
O=C(Nc1sccc1S(=O)(=O)c1ccc(Cl)cc1)c1ccccc1    no
CCc1nc(N)nc(N)c1-c1ccc2nnn(O)c2c1    no
C[N+]1(C)C/C(=C\c2ccccc2)C(=O)/C(=C/c2ccccc2)C1    no
O=C1/C(=C/c2ccc([N+](=O)[O-])cc2)CNC/C1=C\c1ccc([N+](=O)[O-])cc1    yes
COc1cc(OC)c2c(=O)cc(-c3ccccc3F)[nH]c2c1    no

Ask: # outcome recorded in this test, key = N#CC1C(=O)N(c2ccccc2)NC12OC(=O)c1ccncc12 (stereo not given)
Result: no

Ask: # outcome recorded in this test, key = COc1ccc(/N=N/c2c(C)c(C#N)c(=S)n(C3OC(COC(C)=O)C(OC(C)=O)C(OC(C)=O)C3OC(C)=O)c2-c2ccccc2)cc1 (stereo not given)
Result: no

Ask: # outcome recorded in this test, key = O=C(CCN1CCN(c2cccc(Cl)c2)CC1)N1CCc2c([nH]c3ccccc23)C1c1cccnc1 (stereo not given)
Result: no

Ask: # outcome recorded in this test, key = Cc1cc(O)c(C=O)c(C)c1CCC1(C)C=Cc2cc(O)ccc2O1 (stereo not given)
Result: no

Ask: # outcome recorded in this test, key = CC(OC1CC(=O)CC2C(=O)C=CC(=O)C12)c1ccccc1 (stereo not given)
Result: no

---

Give GI50 for every item shown.
- Tested on: MOLT-4
- PROCEDURE_SUMMARY: NCI tumour cell line growth inhibition, 48 h
The source made the active and inactive calls. Rule as the data show it: active = GI50 up to about 1.1 µM and inactive = higher.

Worked cases, answers included:
COC(=O)C1=CC(O)CCC1c1ccc(OC)cc1 (stereo not drawn)    > 100 µM (inactive)
COc1ccc(-n2c(SC(CN3CCOCC3)CN3CCCC3=O)nc3ccccc3c2=O)cc1 (stereo not drawn)    90.8 µM (inactive)
OC(c1ccccc1)C1CC2C=CC1C2 (stereo not drawn)    > 100 µM (inactive)
CC1C2(C)OCC(C#N)(C(=N)O2)C1(C#N)C#N (stereo not drawn)    27.3 µM (inactive)
CCOP(=O)(OCC)c1c(C(=O)OC)cc(=O)[nH]c1-c1ccc(C)cc1    4.57 µM (inactive)
CN(C(=O)C1=CCC2(CC1)OCCO2)c1ccccc1I    > 100 µM (inactive)
N#CC(c1nc2ccccc2s1)c1ncnc(Cl)c1[N+](=O)[O-] (stereo not drawn)    31.8 µM (inactive)

Turning now to a further record.
Ask: Find the recorded GI50 belonging to `CS/C(=N\c1ccc([N+](=O)[O-])cc1C#N)NC(=O)c1ccccc1` and report it.
Result: 54.2 µM (inactive)

---

Give GI50 for every item shown.
- Test system: SW-620
- PROCEDURE_SUMMARY: NCI tumour cell line growth inhibition, 48 h
Where a name gives a salt, the structure may show the parent alone. Activity calls are given as the source filed them. No stated cut-off is given here; in the data, active = GI50 up to about 1.1 µM and inactive = higher.

Worked cases, answers included:
CCOC(=O)c1nc2c3c(ncn2n1)Oc1c(c(-c2ccccc2)nn1-c1ccccc1)C3c1ccc(OC)c(OC)c1 (centres undefined)    > 100 µM (inactive)
COc1cc(C(=O)C/C(CCC(=O)Nc2ccccc2[N+](=O)[O-])=N\NC(=O)CC#N)ccc1O    > 100 µM (inactive)
CCO/N=C(/N)c1ncn(Cc2ccccc2)c1NCC(OCC)OCC    > 100 µM (inactive)
COc1cc(/C=C2\N=C(C)N(n3c(-c4ccccc4)nc4ccccc4c3=O)C2=O)cc(OC)c1OC    > 100 µM (inactive)
O=c1oc2c(Cl)cc(Cl)cc2cc1C1=CSC2=NCCN12    50.5 µM (inactive)

// batch mode: one GI50 value per listed entry
1. COc1ccc(C(C)NNC(=O)c2cc[n+]([BH2-]C#N)cc2)cc1F (centres undefined)
2. COC(=O)C1C2C=CC(C2)N1[C@@H](C)c1ccccc1 (some centres undefined)
3. CC(C)CCCC(C)[C@H]1CC[C@H]2NCCCC[C@]12C (some centres undefined)
4. CN(C)CCOc1ccc(/C(=C(/CCCl)c2ccccc2)c2ccccc2)cc1 [TOREMIFENE CITRATE]

Result:
> 100 µM (inactive)
> 100 µM (inactive)
2.61 µM (inactive)
16.5 µM (inactive)

---

- Tested on: SNB-19
- PROCEDURE_SUMMARY: NCI tumour cell line growth inhibition, 48 h
The source made the active and inactive calls. No stated cut-off is given here; in the data, active = GI50 up to about 1.1 µM and inactive = higher.
Lab note: assign the record to one of yes for active, no for inactive

Use the examples below as a reference point.
Oc1ccc(-c2nc(-c3cccnc3)c(-c3ccc(Cl)cc3)[nH]2)cc1    no
CS/C(=N\c1ccc([N+](=O)[O-])cc1C#N)NC(=O)c1ccccc1    no
COc1ccc2[nH]c3c(C)c4ccnc(NCCCN(C)CCCNc5ccc([N+](=O)[O-])c6[nH]c7ccccc7c(=O)c56)c4c(C)c3c2c1    yes

--- query ---
Ask: # outcome recorded in this test, key = `COC(=O)[C@H](Cc1c[nH]c2ccccc12)NC(=O)c1ccc(CNC(=O)/C=C/c2cccc(Oc3ccccc3)c2)cc1`
Result: no

---

Give GI50 for every item shown.
- System: SW-620
- PROCEDURE_SUMMARY: NCI tumour cell line growth inhibition, 48 h
Activity calls are given as the source filed them. Rule as the data show it: active = GI50 up to about 1.1 µM and inactive = higher.

Worked cases, answers included:
Oc1ccc(-c2ccccc2)nn1    > 100 µM (inactive)
COc1ccc(CSc2ccccc2Cn2cccc2)cc1OC    > 100 µM (inactive)
C[C@@H]1C(O)CC[C@H](C)C12CC=CC2=O (stereo partly specified)    > 100 µM (inactive)
CN(C)c1ccc(-c2nc(-c3cc4c(ccc5ccccc54)oc3=O)cs2)cc1    > 100 µM (inactive)
NC1=CN(Cc2ccccc2)C2=N/C(=C\c3ccccc3)C(=O)N12    > 100 µM (inactive)
Cc1nnc2n1N=C(c1cc(F)c(Cl)cc1Cl)/C(=C/c1ccc(-c3ccc([N+](=O)[O-])cc3)o1)S2    39.6 µM (inactive)
COc1cc2c3c(c1OC)C1(C=CC(=O)C=C1)C[C@H]3N(C)CC2 [PRONUCIFERINE]    > 100 µM (inactive)
CC(OC1CC(=O)CC2C(=O)C=CC(=O)C12)c1ccccc1 (stereo unspecified)    13.8 µM (inactive)
N#CC1=C(S)N(C2OC(CO)C(O)C(O)C2O)C(c2ccccc2)=CC1c1ccccc1 (stereo unspecified)    5.66 µM (inactive)
CN1CCN(c2cc3nsnc3c3nsnc23)CC1    > 10 µM (inactive)

// batch mode: one GI50 value per listed entry
1. O=C(CCc1cc(O)cc(O)c1)NCCc1cc(OCc2ccccc2)cc(OCc2ccccc2)c1
2. C#CC1(O)CC(c2ccccc2)N(C)C(c2ccccc2)C1 (stereo unspecified)
3. C1=C(c2ccccc2)C(OC2Oc3ccccc3C=C2c2ccccc2)Oc2ccccc21 (stereo unspecified)
4. CCCC(=O)c1ccc(=O)n(C)c1
5. O=C(Nc1ccc(Cl)cc1Cl)C1C(=O)N(c2ccc(Cl)cc2Cl)C(=O)/C1=N\Nc1ccc([N+](=O)[O-])cc1[N+](=O)[O-] (stereo unspecified)
6. COc1ccc(OC)c2c(=S)c3ccccc3[nH]c12

Result:
1. 15.8 µM (inactive)
2. > 100 µM (inactive)
3. 31.3 µM (inactive)
4. > 100 µM (inactive)
5. > 100 µM (inactive)
6. > 75.3 µM (inactive)
